B1: ZBED1 (parent)
chain: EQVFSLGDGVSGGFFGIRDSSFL

# Variants of: B1
# TEST_DESCRIPTION: protein stability index of a GFP-peptide fusion (GPS, HEK-293T) (PSI 1-6); higher = more stable;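 further: lentivirally expressed fusions sorted by FACS into six bins by GFP to DsRed ratio, PSI derived from sequencing read proportions per bin multiplied by bin number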
# EXPERIMENTAL_PARAMETERS: c terminus: native
MEASUREMENT_LABEL: protein stability index
API note: the answer field is a bare number with no unit suffix.

Challenge: Request the reported protein stability index associated with Q2A
Response given: 2.44

Challenge: Which value of protein stability index has been reported for V10Y in the records?
Response given: 3.38

Challenge: // returns reported protein stability index for input G9S
Response given: 3.27

Challenge: # input variant: L6I ; wanted: its protein stability index
Response given: 3.14

Challenge: State the recorded protein stability index for this entry: L23F
Response given: 2.63

Challenge: // query protein stability index value for entry V10R
Response given: 4.32

Challenge: Reported protein stability index, variant D19F : ____
Response given: 3.4

Challenge: GET /values?readout=protein stability index&item= S5T
Response given: 3.51

Challenge: Requested read-out: protein stability index. Entry: I17L
Response given: 3.68

Challenge: If you can, please state the reported protein stability index value of F14V .
Response given: 3

Challenge: Which protein stability index value is on record for L23I ?
Response given: 2.99

Challenge: Return reported protein stability index; argument: R18I
Response given: 2.26

Challenge: Requested read-out: protein stability index. Entry: F4A
Response given: 4.22

Challenge: Query: protein stability index; subject: R18V
Response given: 2.14

Challenge: May I ask what protein stability index has been recorded for D19N ?
Response given: 2.75

Challenge: Give its protein stability index value. Item: R18S
Response given: 3.65

Challenge: // returns reported protein stability index for input G16S
Response given: 2.05

Challenge: Entry V10I : reported protein stability index = ?
Response given: 2.92

Challenge: Requested read-out: protein stability index. Entry: G7F
Response given: 1.99

Challenge: Recorded protein stability index of G13M , please.
Response given: 2.2

Challenge: Param item = D19G ; retrieve measured protein stability index.
Response given: 2.87

Challenge: Form field: reported protein stability index of F15V
Response given: 3.65
